Where these numbers come from: paper PMC9551036

Target: SMARCA4 (Homo sapiens, UniProt P51532)
Sequence (P51532 whole entry): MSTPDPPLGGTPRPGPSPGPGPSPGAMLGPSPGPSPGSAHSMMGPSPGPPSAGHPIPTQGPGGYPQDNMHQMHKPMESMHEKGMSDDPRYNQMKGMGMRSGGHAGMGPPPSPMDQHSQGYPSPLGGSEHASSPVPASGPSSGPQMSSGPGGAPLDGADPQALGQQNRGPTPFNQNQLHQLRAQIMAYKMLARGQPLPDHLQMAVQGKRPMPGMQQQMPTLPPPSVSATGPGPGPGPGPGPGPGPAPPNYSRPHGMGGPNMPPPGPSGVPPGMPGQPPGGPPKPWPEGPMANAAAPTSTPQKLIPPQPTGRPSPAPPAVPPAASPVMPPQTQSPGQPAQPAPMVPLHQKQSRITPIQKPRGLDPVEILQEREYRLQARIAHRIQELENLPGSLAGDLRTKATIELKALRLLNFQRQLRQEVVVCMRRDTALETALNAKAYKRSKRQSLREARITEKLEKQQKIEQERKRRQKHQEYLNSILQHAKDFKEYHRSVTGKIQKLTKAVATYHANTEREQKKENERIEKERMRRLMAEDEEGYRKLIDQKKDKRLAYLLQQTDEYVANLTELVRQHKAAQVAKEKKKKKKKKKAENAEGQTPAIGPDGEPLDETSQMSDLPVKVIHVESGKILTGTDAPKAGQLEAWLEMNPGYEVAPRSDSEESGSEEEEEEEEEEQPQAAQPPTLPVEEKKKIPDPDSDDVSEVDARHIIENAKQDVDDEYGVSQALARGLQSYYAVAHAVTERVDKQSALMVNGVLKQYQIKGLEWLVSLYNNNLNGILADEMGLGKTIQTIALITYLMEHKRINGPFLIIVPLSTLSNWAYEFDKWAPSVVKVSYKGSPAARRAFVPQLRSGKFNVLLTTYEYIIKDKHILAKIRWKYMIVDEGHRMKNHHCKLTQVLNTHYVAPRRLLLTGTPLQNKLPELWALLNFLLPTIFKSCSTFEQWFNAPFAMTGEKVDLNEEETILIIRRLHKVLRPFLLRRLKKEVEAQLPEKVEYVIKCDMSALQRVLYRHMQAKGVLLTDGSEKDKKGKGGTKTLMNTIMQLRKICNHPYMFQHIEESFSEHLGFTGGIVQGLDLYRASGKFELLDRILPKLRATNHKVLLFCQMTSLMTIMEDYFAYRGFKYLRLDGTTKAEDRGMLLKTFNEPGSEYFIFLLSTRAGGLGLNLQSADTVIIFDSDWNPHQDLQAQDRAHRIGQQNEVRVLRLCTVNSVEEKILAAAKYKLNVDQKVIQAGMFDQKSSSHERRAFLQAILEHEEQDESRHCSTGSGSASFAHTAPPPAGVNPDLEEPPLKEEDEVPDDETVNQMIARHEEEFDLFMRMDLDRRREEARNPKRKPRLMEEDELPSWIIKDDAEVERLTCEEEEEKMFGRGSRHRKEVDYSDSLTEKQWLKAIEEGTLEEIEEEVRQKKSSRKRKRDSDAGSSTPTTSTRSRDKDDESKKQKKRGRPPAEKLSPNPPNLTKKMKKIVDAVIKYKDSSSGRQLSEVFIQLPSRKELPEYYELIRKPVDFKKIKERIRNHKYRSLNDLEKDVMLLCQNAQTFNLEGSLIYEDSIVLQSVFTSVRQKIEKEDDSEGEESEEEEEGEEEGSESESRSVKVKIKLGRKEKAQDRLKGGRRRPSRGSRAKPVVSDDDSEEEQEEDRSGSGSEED
Assay: SMARCA4 capillary electrophoresis protein assay in RKO cells
Assay type: cell-based
Set-up: endogenous in cells; host or cells: RKO, HCT116, LU99, HCC-364, HCT-15, HCC4006, SK-N-AS
Conditions: RKO (18 h); mean ± SD

SMILES STR	READING UNIT	SMARCA4 Dmax
Cc1ncsc1-c1ccc([C@H](CCC(C)(C)CCN2CCC(c3ccc4c(c3)n(C3CCCC3)c3nc(=O)c5c(Br)cccc5n43)CC2)NC(=O)[C@@H]2C[C@@H](O)CN2C(=O)[C@@H](NC(=O)C2(F)CC2)C(C)(C)C)cc1	%	72
Cc1ncsc1-c1ccc([C@H](CC[C@@H](C)CCN2CCC(c3ccc4c(c3)n(C3CCCC3)c3nc(=O)c5c(Br)cccc5n43)CC2)NC(=O)[C@@H]2C[C@@H](O)CN2C(=O)[C@@H](NC(=O)C2(F)CC2)C(C)(C)C)cc1	%	87
Cc1ncsc1-c1ccc(CNC(=O)[C@@H]2C[C@@H](O)CN2C(=O)[C@@H](NC(=O)C2(F)CC2)C(C)(C)C)c(OCCCCN2CCC(c3ccc4c(c3)n(C3CCCC3)c3nc(=O)c5c(Br)cccc5n43)CC2)c1	%	76
Cc1ncsc1-c1ccc(CNC(=O)[C@@H]2C[C@@H](O)CN2C(=O)[C@@H](NC(=O)C2(F)CC2)C(C)(C)C)c(OCCOCCOCCN2CCC(c3ccc4c(c3)n(C3CCCC3)c3nc(=O)c5c(Br)cccc5n43)CC2)c1	%	75
Cc1ncsc1-c1ccc([C@H](CCCCN2CCC(c3ccc4c(c3)n(C3CCCC3)c3nc(=O)c5c(Br)cccc5n43)CC2)NC(=O)[C@@H]2C[C@@H](O)CN2C(=O)[C@@H](NC(=O)C2(F)CC2)C(C)(C)C)cc1	%	52
Cc1ncsc1-c1ccc(CNC(=O)[C@@H]2C[C@@H](O)CN2C(=O)[C@@H](NC(=O)C2(F)CC2)C(C)(C)C)c(OCCOCCOCCOCCN2CCC(c3ccc4c(c3)n(C3CCCC3)c3nc(=O)c5c(Br)cccc5n43)CC2)c1	%	89
Cc1ncsc1-c1ccc([C@H](COCCCN2CCC(c3ccc4c(c3)n(C3CCCC3)c3nc(=O)c5c(Br)cccc5n43)CC2)NC(=O)[C@@H]2C[C@@H](O)CN2C(=O)[C@@H](NC(=O)C2(F)CC2)C(C)(C)C)cc1	%	83
Cc1ncsc1-c1ccc([C@H](COC(C)(C)CN2CCC(c3ccc4c(c3)n(C3CCCC3)c3nc(=O)c5c(Br)cccc5n43)CC2)NC(=O)[C@@H]2C[C@@H](O)CN2C(=O)[C@@H](NC(=O)C2(F)CC2)C(C)(C)C)cc1	%	14
